- assayInfo: Chemical stability of the compound in phosphate buffer saline at pH 2 assessed as half life
- Format: physicochemical
# key: entry, value: t1/2
endpointName: t1/2 (h)

| molecule | unitInfo | measuredNumber |
| --- | --- | --- |
| CCOC(=O)[C@H](NP(=O)(OC[C@H]1OC(C)(C)O[C@H]1C(=O)NO)Oc1cccc(C)c1C)C(C)C (stereo not given in full) | h | 10 |
| COC(=O)[C@@H](C)NP(=O)(OC[C@H]1OC(C)(C)O[C@H]1C(=O)NO)Oc1ccc(OC)cc1 (stereo not given in full) | h | 8.5 |
| CC(C)[C@@H](NP(=O)(OC[C@H]1OC(C)(C)O[C@H]1C(=O)NO)Oc1ccccc1)C(=O)OC(C)(C)C (stereo not given in full) | h | 28 |
| CCOC(=O)[C@H](NP(=O)(OC[C@H]1OC(C)(C)O[C@H]1C(=O)NO)Oc1ccc(C)cc1)C(C)C (stereo not given in full) | h | 15 |
| COC(=O)[C@H](NP(=O)(OC[C@H]1OC(C)(C)O[C@H]1C(=O)NO)Oc1ccc(C)cc1)C(C)C (stereo not given in full) | h | 28 |

* * *

- System: Blood
- assayInfo: Half life in mouse blood
- Format: ADME, tissue-based

| compound | cmp | t1/2 (min) |
| --- | --- | --- |
| CCOC(=O)[C@H](NP(=O)(OC[C@H]1OC(C)(C)O[C@H]1C(=O)NO)Oc1cccc(C)c1C)C(C)C (stereo not given in full) | = | 60 |
| CCOC(=O)[C@H](NP(=O)(OC[C@H]1OC(C)(C)O[C@H]1C(=O)NO)Oc1ccccc1)C(C)C (stereo not given in full) | = | 120 |
| CC(C)[C@@H](NP(=O)(OC[C@H]1OC(C)(C)O[C@H]1C(=O)NO)Oc1ccccc1)C(=O)OC(C)(C)C (stereo not given in full) | = | 120 |
| COC(=O)[C@@H](C)NP(=O)(OC[C@H]1OC(C)(C)O[C@H]1C(=O)NO)Oc1ccccc1 (stereo not given in full) | < | 15 |
| CCOC(=O)[C@@H](C)NP(=O)(OC[C@H]1OC(C)(C)O[C@H]1C(=O)NO)Oc1ccccc1 (stereo not given in full) | < | 15 |
| CCOC(=O)[C@H](NP(=O)(OC[C@H]1OC(C)(C)O[C@H]1C(=O)NO)Oc1ccc(C)cc1)C(C)C (stereo not given in full) | = | 45 |
| COC(=O)CNP(=O)(OC[C@H]1OC(C)(C)O[C@H]1C(=O)NO)Oc1ccccc1 (stereo not given in full) | < | 15 |
| COC(=O)[C@H](NP(=O)(OC[C@H]1OC(C)(C)O[C@H]1C(=O)NO)Oc1ccccc1)C(C)C (stereo not given in full) | = | 45 |
| COC(=O)[C@@H](C)NP(=O)(OC[C@H]1OC(C)(C)O[C@H]1C(=O)NO)Oc1ccc(C)cc1 (stereo not given in full) | < | 15 |
| Cc1cccc(OP(=O)(N[C@@H](C(=O)OC(C)(C)C)C(C)C)OC[C@H]2OC(C)(C)O[C@H]2C(=O)NO)c1C (stereo not given in full) | > | 480 |
